test name: Rat microsomal clearance
Assay type: in vitro ADME
experimental parameters: rat microsomes
List of microsomal CLint values.
Respond numerically; units are µL/min/mg and should not be typed.

The following molecules have reported results that may help.
> print(dat)
                             test.smiles  experimental.readout  value.reported
1  CN1c2ccc(Cl)cc2N=C(N2CCNCC2)c2ccccc21      microsomal CLint            1090
2   Clc1ccc2c(c1)N=C(N1CCNCC1)c1ccccc1C2      microsomal CLint             383
3    Cc1cccc2c1Oc1ccc(Cl)cc1N=C2N1CCNCC1      microsomal CLint              27

Let's switch to this molecule now.
Qu. Sample Cc1cccc2c1Oc1ccc(F)cc1N=C2N1CCNCC1 — what was its microsomal CLint?
Ans. 247

---

target desc: muscarinic M2 receptor (Homo sapiens)
Construct: expressed in transfected cells
Sequence (P08172 whole entry): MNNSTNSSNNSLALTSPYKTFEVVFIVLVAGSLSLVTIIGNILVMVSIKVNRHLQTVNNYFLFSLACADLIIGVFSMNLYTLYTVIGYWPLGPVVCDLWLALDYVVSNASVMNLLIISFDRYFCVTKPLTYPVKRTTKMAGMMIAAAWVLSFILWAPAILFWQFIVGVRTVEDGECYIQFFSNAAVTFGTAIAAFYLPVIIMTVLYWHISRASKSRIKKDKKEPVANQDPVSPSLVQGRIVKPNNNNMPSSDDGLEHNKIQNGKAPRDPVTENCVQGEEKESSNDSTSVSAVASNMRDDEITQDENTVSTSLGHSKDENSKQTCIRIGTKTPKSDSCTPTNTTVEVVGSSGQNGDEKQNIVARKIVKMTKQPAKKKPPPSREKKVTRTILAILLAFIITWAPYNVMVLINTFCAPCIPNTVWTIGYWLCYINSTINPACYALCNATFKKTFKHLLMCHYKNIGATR
test name: R-SAT functional screen, M2
Assay type: cell-based
experimental parameters: R-SAT; read-out: M2 pEC50 (converted)
experimental readout: EC50
Write the figure, then the unit, nothing else.

> print(dat)
                                   compound  value.reported
1       Cc1cccc2c1Oc1cc(Cl)ccc1N=C2N1CCNCC1          398 nM
2   Cc1ccc2c(c1)C(N1CCNCC1)=Nc1cc(Cl)ccc1N2         1260 nM
3  O=S(=O)(Oc1ccc2c(c1)N=C(N1CCNCC1)c1ccccc1N2)C(F)(F)F         2510 nM
4       Fc1ccc2c(c1)N=C(N1CCNCC1)c1ccccc1O2         2510 nM
5      Clc1ccc2c(c1)N=C(C1CCNCC1)c1ccccc1N2         2000 nM

Qu. Tell me reported EC50 for COc1ccc2c(c1)Oc1ccc(F)cc1N=C2N1CCNCC1 , tested with muscarinic M2 receptor (Homo sapiens).
Ans. 2510 nM

Qu. Record lookup: for muscarinic M2 receptor (Homo sapiens), what EC50 belongs to c1ccc2c(c1)N=C(N1CCNCC1)c1ccccc1S2 ?
Ans. 316 nM

---

Measured microsomal CLint, listed per entry for reference.
test name: Human microsomal clearance
Assay type: in vitro ADME
experimental parameters: human microsomes
// units = µL/min/mg; emit number, no label

> print(dat)
                             test.smiles  result.units  value.reported
1  CN1c2ccc(Cl)cc2N=C(N2CCNCC2)c2ccccc21     µL/min/mg              23
2     Cc1cccc2c1Oc1ccc(F)cc1N=C2N1CCNCC1     µL/min/mg              13

Qu. Name the reported microsomal CLint value associated with the molecule Clc1ccc2c(c1)N=C(N1CCNCC1)c1ccccc1C2
Ans. 21

Qu. Query (molecule): Cc1cccc2c1Oc1ccc(Cl)cc1N=C2N1CCNCC1 ; field requested: microsomal CLint
Ans. 16

---

target desc: muscarinic M1 receptor (Homo sapiens)
Construct: expressed in transfected cells
Sequence (P11229 whole entry): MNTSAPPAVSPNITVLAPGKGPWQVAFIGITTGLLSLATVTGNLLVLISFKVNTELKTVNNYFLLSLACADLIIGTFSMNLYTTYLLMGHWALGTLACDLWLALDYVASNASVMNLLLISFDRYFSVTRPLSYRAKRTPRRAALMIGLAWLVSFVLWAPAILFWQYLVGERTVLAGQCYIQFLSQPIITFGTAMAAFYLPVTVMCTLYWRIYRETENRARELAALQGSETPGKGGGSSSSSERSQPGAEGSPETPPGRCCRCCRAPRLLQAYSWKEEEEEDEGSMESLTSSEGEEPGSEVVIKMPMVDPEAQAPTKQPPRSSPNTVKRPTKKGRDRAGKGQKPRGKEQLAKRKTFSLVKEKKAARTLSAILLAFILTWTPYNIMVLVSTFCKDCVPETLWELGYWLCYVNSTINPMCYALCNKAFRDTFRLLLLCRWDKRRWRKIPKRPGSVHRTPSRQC
test name: R-SAT functional screen, M1
Assay type: cell-based
experimental parameters: R-SAT; read-out: M1 eff (efficacy)
experimental readout: Emax (%)
API: value field is a number in %; no unit string.

Consider the reported Emax for these compounds:
> print(dat)
                                   compound  value.reported
1   Clc1ccc2c(c1)N=C(N1CCNCC1)c1cc(I)ccc1N2               3
2  O=S(=O)(Oc1ccc2c(c1)C(N1CCNCC1)=Nc1ccccc1O2)C(F)(F)F             -11
3      Clc1ccc2c(c1)C(N1CCNCC1)=Nc1ccccc1N2              -5
4      Brc1ccc2c(c1)N=C(N1CCNCC1)c1ccccc1N2              63
5  FC(F)(F)c1ccc2c(c1)N=C(N1CCNCC1)c1ccc(Cl)cc1N2              11
6  O=S(=O)(Oc1ccc2c(c1)N=C(N1CCNCC1)c1ccccc1N2)C(F)(F)F              19

Qu. // returns reported Emax for input Clc1ccc2c(c1)N=C(C1CCNCC1)c1ccccc1N2
Ans. 57

Qu. Reported Emax, compound Clc1ccc2c(c1)N=C(NC[C@H]1CCCN1)c1ccccc1N2 : ____
Ans. 4

Qu. // lookup Emax for Clc1ccc2c(c1)N=C(NC1CCNC1)c1ccccc1N2 (stereo not drawn)
Ans. 10

Qu. Using the record for Cc1ccc2c(c1)C(N1CCNCC1)=Nc1cc(Cl)ccc1N2 , report its Emax.
Ans. 14

Qu. I have this compound here, Clc1ccc2c(c1)N=C(N1CCNCC1)c1cccc(Cl)c1N2 , and I need its recorded Emax.
Ans. 78

Qu. # get_value(readout='Emax', item= Clc1ccc2c(c1)N=C(N1CCNCC1)c1cc(Cl)ccc1N2 )
Ans. 1
